# Test system: Splenocyte
# assay: Ratio of IC50 of drug to IC50 of cyclosporin A for immunosuppressive activity in mouse splenocytes assessed as inhibition of allogenic mixed lymphocyte reaction
# Type: functional
Listing of entries alongside the reported Ratio IC50.
No unit in the answer, please; the number alone is enough.

# count of solved cases: 3
COc1cc2c(c(OC)c1OC)-c1ccc(OC)c(=O)cc1[C@@H](NC(=O)c1cccc(CO[N+](=O)[O-])c1)CC2 ... 25
COc1cc2c(c(OC)c1OC)-c1ccc(OC)c(=O)cc1[C@@H](NC(=O)c1ccc(CO[N+](=O)[O-])cc1)CC2 ... 5
COc1cc2c(c(OC)c1OC)-c1ccc(OC)c(=O)cc1[C@@H](NC(=O)CCCO[N+](=O)[O-])CC2 ... 470

Now consider a different molecule.
Entry COc1cc2c(c(OC)c1OC)-c1ccc(OC)c(=O)cc1[C@@H](NC(=O)c1ccc(CCl)cc1)CC2 : reported Ratio IC50 = ?
7
